// data source = PubChem BioAssay (NCI)

System: OVCAR-8 ovarian
protocol_details: NCI tumour cell line growth inhibition, 48 h
reported_metric: TGI (µM)
Entry rule: numbers only, all in µM.

TGI of `O=C(Nc1nc2ccc([N+](=O)[O-])cc2s1)Nc1cc(Cl)ccc1I` on OVCAR-8 ovarian? 26.7

TGI of `COc1ccc(-c2nc3ccc(-c4nnc(SCC(=O)Nc5ccc(/C(C)=N\O)cc5)o4)cc3[nH]2)cc1` on OVCAR-8 ovarian? 44.6

TGI of `COc1ccc(C(=O)/C=C/c2ccc(Cl)c(C(F)(F)F)c2)cc1S(N)(=O)=O` on OVCAR-8 ovarian? 4.51

---

Test system: MDA-MB-468 breast
protocol_details: NCI tumour cell line growth inhibition, 48 h
Definition: the class of an entry is the range in lower segment: < 2 µM; middle segment: ≥ 2 µM and < 10 µM; upper segment: ≥ 10 µM that contains its TGI.

GET /class?item= Cc1ccc2c(c1)C(C)Cc1c(ncnc1-n1cnc3ccccc31)N2C (stereo unspecified) upper segment

GET /class?item= `COc1cc(NS(C)(=O)=O)ccc1Nc1c2ccc([N+](=O)[O-])cc2nc2c(C)cccc12` lower segment

GET /class?item= `Cn1cc(-c2ccc3c(Nc4cccc(NC(=O)Nc5cccc(F)c5)c4)ncnc3c2)cn1` lower segment

GET /class?item= `O=C(NNc1nc2cc(F)ccc2n2c(CN3CCCC3)ccc12)c1cnccn1` middle segment

GET /class?item= `COc1ccc2[nH]c(=O)c3c4ccccc4cn3c2c1` lower segment

GET /class?item= CCSCC1CC(O)(c2ccccc2)C(c2ccccc2)C(c2ccc(Cl)cc2)O1 (stereo unspecified) middle segment

GET /class?item= `COc1cc2c(cc1O)CC[C@@H]1[C@@H]2CC[C@]2(C)[C@@H](NCCN(C)C)CC[C@@H]12` lower segment

GET /class?item= `CC(=O)N[C@@H](Cc1ccc(OP(=O)(O)O)cc1)C(=O)N[C@H]1CCC(=O)N2CCC[C@@H](C(=O)NCc3ccc(Cl)cc3)N2C1=O` upper segment

GET /class?item= `Cc1ccc([N+](=O)[O-])cc1NC(=O)Nc1cccc(F)c1` upper segment

GET /class?item= `COc1ccc(-c2nc3ccc(-c4nnc(SCC(=O)Nc5ccc(/C(C)=N\O)cc5)o4)cc3[nH]2)cc1` upper segment
